Test: soluble on expression in E. coli; label from the status in PepcDB or PDB records
outcomeMeasure: soluble on expression in E. coli

MAHHHHHHMLRITPSRYASKVTAGNAKNQAGSPRQKAKLFHVIPGTPVTPVEKLKEQRRRFGQDRYSRQPEYRPGRNVRMDPNTFTLYATTKGVMTIRTSRINPSYKWLDVEPDIQKVYRSRCMRAALQARGKASMMVAGNVHYRAELDHVTEPHWRERVMRVPKATERFQDPNYFTRGLVPSLRPLSRYSYE; soluble
MSLARELRKGKSNAIGMLFGDPSSGFQSRLHHAALQACNDAGYFLTAGLFREEEDNWDEQLTQFLNRTSIEKMILVPPLCGSTALHDRLIEQGASFVLVSPSRAVAVAHAVCMDDRRAAREITEHLLGLGHRRIAHITGPSDHAATRLRREGFEDAMRAVGDGALRPDWIRPGLFRFKPALECARQILTGPDRPTAIFAANDEMAAAVCFAANSLGLRVPDDLSVVGFDDVAIATTMWPPLTTVAQPYAQMARESVRLLTEVGPPGDAGQAAEKVTIDHALKVRQSTAAEGHHHHHH; soluble
MTSNDADIKATVCVVTYNQVEYIEQCLQSLIDQITNFEFEIIVGDDFSTDGTRRIVEDFQRKYPHVIKPIFHSRNVGAAVNFNAVHGSARGKFVAHVDGDDYMLPNKLRSQVDFMERNPNCNISWHRMYVSYGSNIKEDLLDLNNFRQLCFTRADILKFITIGMNSSKMYRAETMNFQRPDFPMLDYFANVEQIGDGQACFISSEPLGVYRAGIGIAKNDFRVKEALNSSFLYFLSKYPKLSNEINQSVLLLLLMAFKNRRYTELSLFLKVYLKSFSFFTPWKLYKDYEFIKMLRLPKLEHHHHHH; not soluble
MKLMDVRVSGLNVWITDKHILKGISFKAQPGTVTAIMGPSGSGKSTLIRVINRLIDLIPGARVEGEVWINNMNVMKEDPYNIRRYTGMVFQEPNPFPHMTIYENVAIGPKLHGLAKNKKELDEIVEWALKMAHLWDEVKDRLSDYPHQLSGGQRQRLSLARALALKPRVLLLDEPTANIDPVSTVKIEQSIVEYAKEEMATVIIVTHTPQQAARISDQILFLYEGRVIEYGPTKELVLRPRHELTKKFLGGEV; soluble
MKIDRLKTDLAKAREKAAEWQARVRDLEKQITEQENLEILQVVRSVAASPEELRGLLDMIRGAKMPMAGTARTFENMDKEEI; not soluble

*Q* Give its soluble on expression in E. coli value. Item: `MAHHHHHHMDKIKSWLGFNKKIVFTENKFLLRNVNDQESLQAENVRAEDYPIPEKYLEDPDKIPKYYVFQSNMVTDEDLQPGMLRQLEVDKRLTLPTRTHISFLVTATDVIHSWSIPSLGIKADAIPGRLHKITTFILREGVYYGQCSEMCGTLHGFMPIVVEAVSPEAYAAHAKKYYKE`
*A* not soluble

*Q* Give its soluble on expression in E. coli value. Item: `HMSNPLGELVKALEKLSFKPSDVRIYSLLLERGGMRVSEIARELDLSARFVRDRLKVLLKRGFVRREIVEKGWVGYIYSAEKPEKVLKEFKSSILGEIERIEKMFTDGS`
*A* soluble
